These measurements were taken from patent US20210292393A1.

target: SARS-CoV-2 full length spike protein, V367F mutant (SARS-CoV-2, UniProt P0DTC2 14-1273)
Measured median fluorescence fold over isotype control values are reported for all entries that follow.
QUANTITY_KIND: median fluorescence fold over isotype control

| BINDER | VALUE |
| --- | --- |
| antibody 448 (antibody, V domains shown) VH: QVQLVQSGAEVKKPGASVKVSCKASGYTFTSYGISWVRQAPGQGLEWMGWISAYNGNTNYAQKLQGRVTMTTDTSTSTAYMELRSLRSDDTAVYYCAIELLEGFYYYYGMDVWGQGTTVTVSS VL: SYELTQPPSVSVSPGQTARITCSGDALPKQYAYWYQQKPGQAPVLVIYKDSERPSGIPERFSGSSSGTTVTLTISGVQAEDEADYYCQSADSSGTYPYVVFGGGTKLTVL | 5.79 fold over isotype |
| antibody 440 (antibody, V domains shown) VH: EVQLLESGGGLVQPGGSLRLSCAASGFTFSSYAMSWVRQAPGKGLEWVSAISGSGVNTYHADSVKGRFTISRDNSRNTLYLQMSSLTAEDTAAYYCAKDFEAASGAYYYYGMDVWGQGTTVTVSS VL: SYELTQPPSVSVSPGQTARITCSGDALPDQYAYWYQQKPGQAPVVVIYKDRERPSGIPERFSGSNSGTTVTLTISGVQAEDEADYYCQSADSSATYVVFGGGTKLTVL | 7.17 fold over isotype |
| antibody 455 (antibody, V domains shown) VH: QVQLVQSGAEVKKPGSSVKVSCKASGGTFSSYAISWVRQAPGQGLEWMGRIIPILGIANYAQKFQGRVTITADKSTSTAYMELSSLRSEDTAVYYCARDSIVVPAAIISGYYYYGMDVWGQGTTVTVSS VL: QSVLTQPPSVSAAPGQKVTISCSGSSSNIGNNYVSWYQQLPGTAPKLLIYDNNKRPSGIPDRFSGSKSGTSATLGITGLQTGDEADYYCGTWDSSLSAGRVFGGGTKLTVL | 32.3 fold over isotype |
